Experiment: Cytotoxicity against LPS-induced mouse BV2 cells assessed as cell viability after 24 hrs by MTT assay
Format: cell-based, BV-2
Set-up: concentration or dose not given beside the values
Conditions: read-out: Activity
Recorded viability at 24 h by entry
measured_endpoint: viability at 24 h

                            compound_smiles  observed
0  CO[C@H]1/C=C/C=C/C=C/C[C@H](OC(=O)[C@@H](C)NC(=O)CCC(C)C)[C@H](C)[C@@H](O)/C(C)=C\CCc2cc(O)cc(c2)NC(=O)C1     82.5%
1  CCCC(=O)N[C@H](C)C(=O)O[C@H]1C/C=C/C=C/C=C/[C@H](OC)CC(=O)Nc2cc(O)cc(c2)CC/C=C(/C)[C@H](O)[C@H]1C       96%
2  CO[C@H]1/C=C/C=C/C=C/C[C@H](OC(=O)[C@@H](C)NC(=O)C(C)C)[C@H](C)[C@@H](O)/C(C)=C\CCc2cc(O)cc(c2)NC(=O)C1     85.4%
